Listed below: P388 ED50 values for each entry.
- System: murine P388 lymphocytic leukemia cell line
- Measurement protocol: Cancer cell growth inhibition, murine P388 lymphocytic leukemia cell line
- Type: cell-based
- Condition set: murine P388
Endpoint label: P388 ED50 (µg/mL)

1) COc1cc2c3c(cc[n+](C)c3c1OC)N(C)C=C2.[I-] [Compound 5] :: 3.9
2) COc1cc2ccnc3c2c(c1O)N(C)C=C3 [Compound 2, isoaaptamine] :: 0.28
3) COC1=Cc2ccnc3ccnc(c23)C1=O [Compound 3, 9-demethyloxyaaptamine] :: 0.31
4) COC1=Cc2ccnc3ccnc(c23)C1(OC)OC [Compound 12] :: 59

----------
Listed below: IC50 values for each entry.
- Test system: lung NCI-H460
- Measurement protocol: Cancer cell growth inhibition, lung NCI-H460
- Format: cell-based, human
- Condition set: Homo sapiens; Table 5; lung NCI-H460; read-out: Cancer Cell Line Results ED50
Endpoint label: IC50 (µg/mL)

1. COc1cc2c3c(cc[n+](Cc4ccccc4)c3c1OC)N(Cc1ccccc1)C=C2.[Cl-] [Compound 10a] :: 0.26
2. COc1cc2c3c(ccnc3c1OC)N(Cc1ccccc1)C=C2.Cl [Compound 9a] :: 4.9
3. COc1ccc(CN2C=Cc3cc(OC)c(OC)c4c3c2cc[n+]4Cc2ccc(OC)cc2)cc1.[Br-] [Compound 10b] :: 0.33
4. COc1ccc(CN2C=Cc3cc(OC)c(OC)c4nccc2c34)cc1.Cl [Compound 9b] :: 5.1

----------
Structures can show the parent of a compound that is named as a salt.
Listed below: melting point values for each entry.
Endpoint label: melting point

1. COc1cc2c3c(ccnc3c1OC)N(Cc1ccccc1)C=C2.Cl :: 137 to 142 °C (dec.)
2. COc1cc2c3c(cc[n+](Cc4ccccc4)c3c1OC)N(Cc1ccccc1)C=C2.[Cl-] [Compound 10a] :: 175 °C (dec.)
3. COc1ccc(CN2C=Cc3cc(OC)c(OC)c4nccc2c34)cc1.Cl :: 235 to 237 °C (dec.)
4. Oc1cc2ccnc3c2c(c1O)NC=C3 (as salt: hydrobromid) [Compound 15, hydrobromide] :: 245 to 248 °C (dec.)
5. COc1cc(CN2C=Cc3cc(OC)c(OC)c4c3c2cc[n+]4Cc2cc(OC)c(OC)c(OC)c2)cc(OC)c1OC.[Br-] [Compound 10c] :: 116 to 118 °C
6. COc1cc(CN2C=Cc3cc(OC)c(OC)c4nccc2c34)cc(OC)c1OC.Cl :: 198 to 200 °C (dec.)

----------
Listed below: IC50 values for each entry.
- Tested on: murine P388 lymphocytic leukemia cell line
- Measurement protocol: Cancer cell growth inhibition, murine P388 lymphocytic leukemia cell line
- Assay type: cell-based
- Condition set: Mus musculus; Table 5; leukemia P388; read-out: Cancer Cell Line Results ED50
Endpoint label: IC50 (µg/mL)

1. COc1cc2c3c(cc[n+](Cc4ccccc4)c3c1OC)N(Cc1ccccc1)C=C2.[Cl-] [Compound 10a] :: 0.234
2. COc1cc2c3c(cc[n+](C)c3c1OC)N(C)C=C2.[I-] :: 3.89
3. COc1cc(CN2C=Cc3cc(OC)c(OC)c4nccc2c34)cc(OC)c1OC.Cl :: 4.64
4. COc1ccc(CN2C=Cc3cc(OC)c(OC)c4c3c2cc[n+]4Cc2ccc(OC)cc2)cc1.[Br-] [Compound 10b] :: 1.3
5. COc1ccc(CN2C=Cc3cc(OC)c(OC)c4nccc2c34)cc1.Cl :: 2.19
6. COc1cc2c3c(ccnc3c1OC)N(Cc1ccccc1)C=C2.Cl :: 1.64
